Molecular target: Protein kinase C theta type (Homo sapiens) (UniProt Q04759)
Sequence (Q04759 whole entry, looked up): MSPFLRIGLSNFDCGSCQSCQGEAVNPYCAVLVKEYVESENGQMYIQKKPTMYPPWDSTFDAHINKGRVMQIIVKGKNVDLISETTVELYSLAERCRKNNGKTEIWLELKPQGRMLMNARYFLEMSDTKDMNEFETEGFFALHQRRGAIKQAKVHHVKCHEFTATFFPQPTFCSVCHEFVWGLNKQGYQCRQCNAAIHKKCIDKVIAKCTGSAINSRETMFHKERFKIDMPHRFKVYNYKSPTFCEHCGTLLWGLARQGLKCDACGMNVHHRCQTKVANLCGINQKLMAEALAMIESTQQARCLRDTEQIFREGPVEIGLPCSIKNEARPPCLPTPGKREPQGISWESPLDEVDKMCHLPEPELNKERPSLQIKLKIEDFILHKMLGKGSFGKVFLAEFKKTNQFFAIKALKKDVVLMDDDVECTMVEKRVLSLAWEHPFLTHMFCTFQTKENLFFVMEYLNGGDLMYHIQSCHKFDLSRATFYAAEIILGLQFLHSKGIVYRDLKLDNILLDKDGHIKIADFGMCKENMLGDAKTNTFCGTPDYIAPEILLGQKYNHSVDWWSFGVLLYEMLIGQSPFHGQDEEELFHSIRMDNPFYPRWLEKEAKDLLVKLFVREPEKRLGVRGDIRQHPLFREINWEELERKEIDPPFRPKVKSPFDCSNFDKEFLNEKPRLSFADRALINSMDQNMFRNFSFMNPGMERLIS
Test: Enzymatic radiometric [Km ATP] KinaseProfiler LeadHunter assay, kinase: PKC-theta, catalogue number: 14-444KP The assay has been performed by Eurofins Discovery.
Settings: ATP concentration 15.0 uM, Test compound concentration 10.0 uM
attribute measured: Activity (%)

Request: Quick check: Activity of `CC(C)[C@@H](Nc1ncnc2[nH]c(C(=O)N[C@@H]3CCN(C)C3)cc12)c1ccc2c(c1)S(=O)(=O)CCC2` ?
Result: 102

Request: Value lookup for Activity; key = `CC(C)[C@H](Nc1ncnc2[nH]ccc12)c1ccc2c(c1)S(=O)(=O)CCC2`
Result: 88

Request: What does the record list as Activity for `Cc1nn(C)cc1-c1cc2c(N[C@H](c3ccc4c(c3)S(=O)(=O)CCC4)C(C)C)ncnc2[nH]1` ?
Result: 106

Request: Quick check: Activity of `COc1ccc([C@@H](Cc2nnn[nH]2)NC(=O)c2ncnc3[nH]ccc23)cc1` ?
Result: 90

Request: Given `CNCc1cc(-c2cc3c(N[C@@H](c4ccc5c(c4)S(=O)(=O)CCC5)C(C)C)ncnc3[nH]2)co1` , state its recorded Activity.
Result: 106

Request: # lookup: Activity of `CC(C)[C@H](Nc1ncnc2[nH]c(-c3cnn(C)c3C#N)cc12)c1ccc2c(n1)OCCO2`
Result: 96

Request: I'd like to know its Activity. The molecule in question is `C[C@H](C(=O)O)[C@@H](NC(=O)c1ncnc2[nH]ccc12)c1ccc(Br)cc1`
Result: 100

Request: Fill in: Activity of `COc1ccc([C@H](Cc2nnn[nH]2)NC(=O)c2ncnc3[nH]ccc23)cc1` is ___
Result: 91

Request: Endpoint output: Activity of `Cn1ncc(-c2cc3c(N[C@@H](c4ccc5c(n4)OCCO5)C(C)(C)C)ncnc3[nH]2)c1C#N` . Value?
Result: 96

Request: Reported Activity, molecule `CNC(=O)Cn1cc(-c2cc3c(N[C@@H](c4ccc5c(c4)S(=O)(=O)CCC5)C(C)C)ncnc3[nH]2)cn1` : ____
Result: 91

Request: Activity lookup needed for `CC(C)[C@@H](Nc1ncnc2[nH]ccc12)c1ccc2c(c1)S(=O)(=O)CCC2` , thanks.
Result: 101

====

Molecular target: Aurora kinase A (Homo sapiens)
Test: Enzymatic radiometric [Km ATP] KinaseProfiler LeadHunter assay, kinase: Aurora-A, catalogue number: 14-511KP The assay has been performed by Eurofins Discovery.
Settings: ATP concentration 15.0 uM, Test compound concentration 10.0 uM
attribute measured: Activity (%)

Check out these entries, answers already filled in.
Request: What value of measured Activity is listed for `CC(C)[C@@H](Nc1ncnc2[nH]ccc12)c1ccc2c(c1)S(=O)(=O)CCC2` ?
Result: 57

Request: Look up Activity for this compound: `CNCc1cc(-c2cc3c(N[C@@H](c4ccc5c(c4)S(=O)(=O)CCC5)C(C)C)ncnc3[nH]2)co1`
Result: 73

Request: Report Activity for `CC(C)[C@@H](Nc1ncnc2[nH]c(C(=O)N[C@@H]3CCN(C)C3)cc12)c1ccc2c(c1)S(=O)(=O)CCC2` please.
Result: 97

I: Cn1ncc(-c2cc3c(N[C@@H](c4ccc5c(n4)OCCO5)C(C)(C)C)ncnc3[nH]2)c1C#N
II: CC(C)[C@H](Nc1ncnc2[nH]c(-c3cnn(C)c3C#N)cc12)c1ccc2c(n1)OCCO2
Request: Larger number for Activity: I , or II ? Field: selected label. Fill in the label of the entry you choose.
Result: I
(I: 95%, II: 53%)

====

Target: Serine/threonine-protein kinase mTOR (Homo sapiens)
Experiment: Enzymatic radiometric [Km ATP] KinaseProfiler LeadHunter assay, kinase: mTOR, catalogue number: 14-769KP The assay has been performed by Eurofins Discovery.
Details: ATP concentration 70.0 uM, Test compound concentration 10.0 uM
attribute measured: Activity (%)

Request: Record request: Activity value, item `CC(C)[C@@H](Nc1ncnc2[nH]c(C(=O)N[C@@H]3CCN(C)C3)cc12)c1ccc2c(c1)S(=O)(=O)CCC2`
Result: 103

Request: Reported Activity for `Cn1ncc(-c2cc3c(N[C@@H](c4ccc5c(n4)OCCO5)C(C)(C)C)ncnc3[nH]2)c1C#N` : what is it?
Result: 105

Request: Which Activity is reported for this compound? `C[C@H](C(=O)O)[C@@H](NC(=O)c1ncnc2[nH]ccc12)c1ccc(Br)cc1`
Result: 100

Request: Which Activity is reported for this compound? `CNC(=O)Cn1cc(-c2cc3c(N[C@@H](c4ccc5c(c4)S(=O)(=O)CCC5)C(C)C)ncnc3[nH]2)cn1`
Result: 104

Request: I would be grateful if you could share the reported Activity for `Cc1nn(C)cc1-c1cc2c(N[C@H](c3ccc4c(c3)S(=O)(=O)CCC4)C(C)C)ncnc2[nH]1` .
Result: 96

Request: Looking for the measured Activity of `CC(C)[C@H](Nc1ncnc2[nH]ccc12)c1ccc2c(c1)S(=O)(=O)CCC2` , can you help?
Result: 99

Request: State the recorded Activity for this entry: `COc1ccc([C@@H](Cc2nnn[nH]2)NC(=O)c2ncnc3[nH]ccc23)cc1`
Result: 95

Request: Which Activity is reported for this compound? `CC(C)[C@H](Nc1ncnc2[nH]c(-c3cnn(C)c3C#N)cc12)c1ccc2c(n1)OCCO2`
Result: 104

Request: I have this compound here, `CNCc1cc(-c2cc3c(N[C@@H](c4ccc5c(c4)S(=O)(=O)CCC5)C(C)C)ncnc3[nH]2)co1` , and I need its recorded Activity.
Result: 105

Request: Requested field: Activity. Item: `CC(C)[C@@H](Nc1ncnc2[nH]ccc12)c1ccc2c(c1)S(=O)(=O)CCC2`
Result: 102

Request: # get_value(readout='Activity', item= `COc1ccc([C@H](Cc2nnn[nH]2)NC(=O)c2ncnc3[nH]ccc23)cc1` )
Result: 97

====

Target: Dual specificity mitogen-activated protein kinase kinase 1 (Homo sapiens) (UniProt Q02750)
Sequence (Q02750 whole entry): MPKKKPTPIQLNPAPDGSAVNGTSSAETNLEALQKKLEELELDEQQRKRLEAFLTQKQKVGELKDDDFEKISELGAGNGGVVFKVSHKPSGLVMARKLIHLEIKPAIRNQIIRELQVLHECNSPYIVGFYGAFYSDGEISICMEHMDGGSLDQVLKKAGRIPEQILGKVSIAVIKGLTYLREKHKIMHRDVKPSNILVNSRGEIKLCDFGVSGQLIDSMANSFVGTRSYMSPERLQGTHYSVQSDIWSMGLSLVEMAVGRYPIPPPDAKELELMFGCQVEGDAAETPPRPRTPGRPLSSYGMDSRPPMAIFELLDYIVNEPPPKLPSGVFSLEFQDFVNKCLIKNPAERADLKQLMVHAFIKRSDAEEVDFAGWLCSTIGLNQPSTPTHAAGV
Experiment: Enzymatic radiometric [Km ATP] KinaseProfiler LeadHunter assay, kinase: MEK1, catalogue number: 14-429KP The assay has been performed by Eurofins Discovery.
Conditions: ATP concentration 10.0 uM, Test compound concentration 10.0 uM
attribute measured: Activity (%)

Request: Would you kindly share the measured Activity for `CC(C)[C@H](Nc1ncnc2[nH]c(-c3cnn(C)c3C#N)cc12)c1ccc2c(n1)OCCO2` ?
Result: 97

Request: Entry `CC(C)[C@@H](Nc1ncnc2[nH]c(C(=O)N[C@@H]3CCN(C)C3)cc12)c1ccc2c(c1)S(=O)(=O)CCC2` has what Activity?
Result: 107

Request: What value of Activity has been recorded for this entry: `Cn1ncc(-c2cc3c(N[C@@H](c4ccc5c(n4)OCCO5)C(C)(C)C)ncnc3[nH]2)c1C#N`
Result: 98

Request: For the molecule shown here, `CNCc1cc(-c2cc3c(N[C@@H](c4ccc5c(c4)S(=O)(=O)CCC5)C(C)C)ncnc3[nH]2)co1` , give the reported Activity.
Result: 97

Request: Request the reported Activity associated with `COc1ccc([C@@H](Cc2nnn[nH]2)NC(=O)c2ncnc3[nH]ccc23)cc1`
Result: 92

Request: What measured Activity goes with `C[C@H](C(=O)O)[C@@H](NC(=O)c1ncnc2[nH]ccc12)c1ccc(Br)cc1` ?
Result: 89

Request: Activity lookup needed for `CC(C)[C@@H](Nc1ncnc2[nH]ccc12)c1ccc2c(c1)S(=O)(=O)CCC2` , thanks.
Result: 97

Request: # Activity lookup, item `COc1ccc([C@H](Cc2nnn[nH]2)NC(=O)c2ncnc3[nH]ccc23)cc1`
Result: 100

Request: GET /values?readout=Activity&item= `CC(C)[C@H](Nc1ncnc2[nH]ccc12)c1ccc2c(c1)S(=O)(=O)CCC2`
Result: 94

Request: Recorded Activity of `CNC(=O)Cn1cc(-c2cc3c(N[C@@H](c4ccc5c(c4)S(=O)(=O)CCC5)C(C)C)ncnc3[nH]2)cn1` , please.
Result: 97

Request: # input molecule: `Cc1nn(C)cc1-c1cc2c(N[C@H](c3ccc4c(c3)S(=O)(=O)CCC4)C(C)C)ncnc2[nH]1` ; wanted: its Activity
Result: 99

====

Biological target: Ribosomal protein S6 kinase alpha-4 (Homo sapiens) (UniProt O75676)
Sequence (O75676 whole entry, looked up): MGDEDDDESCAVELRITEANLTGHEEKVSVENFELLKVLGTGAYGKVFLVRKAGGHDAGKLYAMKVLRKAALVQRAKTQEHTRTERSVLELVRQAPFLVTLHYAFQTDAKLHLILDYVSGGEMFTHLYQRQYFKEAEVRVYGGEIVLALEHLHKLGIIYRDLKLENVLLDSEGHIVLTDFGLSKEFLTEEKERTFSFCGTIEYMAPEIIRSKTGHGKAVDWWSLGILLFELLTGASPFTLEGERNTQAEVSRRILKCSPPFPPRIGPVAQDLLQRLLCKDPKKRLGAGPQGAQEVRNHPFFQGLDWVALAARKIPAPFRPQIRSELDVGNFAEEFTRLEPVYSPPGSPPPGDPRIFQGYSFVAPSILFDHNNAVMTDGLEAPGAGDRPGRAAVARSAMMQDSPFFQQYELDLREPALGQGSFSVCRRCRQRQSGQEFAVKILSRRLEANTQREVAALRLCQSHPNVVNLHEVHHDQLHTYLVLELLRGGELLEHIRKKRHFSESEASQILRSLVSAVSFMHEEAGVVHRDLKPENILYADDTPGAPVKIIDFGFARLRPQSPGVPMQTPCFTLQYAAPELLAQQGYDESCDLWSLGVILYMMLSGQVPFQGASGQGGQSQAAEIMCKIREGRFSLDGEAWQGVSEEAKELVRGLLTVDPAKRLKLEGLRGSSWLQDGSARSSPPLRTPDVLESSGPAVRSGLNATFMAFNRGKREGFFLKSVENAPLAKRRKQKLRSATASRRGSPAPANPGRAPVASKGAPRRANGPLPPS
Assay: Enzymatic radiometric [Km ATP] KinaseProfiler LeadHunter assay, kinase: MSK2, catalogue number: 14-616KP The assay has been performed by Eurofins Discovery.
Conditions: ATP concentration 45.0 uM, Test compound concentration 10.0 uM
attribute measured: Activity (%)

Request: Quick one: Activity for `Cn1ncc(-c2cc3c(N[C@@H](c4ccc5c(n4)OCCO5)C(C)(C)C)ncnc3[nH]2)c1C#N` ?
Result: 122

Request: For the compound `CC(C)[C@H](Nc1ncnc2[nH]ccc12)c1ccc2c(c1)S(=O)(=O)CCC2` , what Activity is on record?
Result: 92

Request: Any idea what its Activity is? The compound is `CC(C)[C@H](Nc1ncnc2[nH]c(-c3cnn(C)c3C#N)cc12)c1ccc2c(n1)OCCO2`
Result: 114

Request: Need Activity, item `CNCc1cc(-c2cc3c(N[C@@H](c4ccc5c(c4)S(=O)(=O)CCC5)C(C)C)ncnc3[nH]2)co1`
Result: 91

Request: Look at this compound and give its reported Activity. `CNC(=O)Cn1cc(-c2cc3c(N[C@@H](c4ccc5c(c4)S(=O)(=O)CCC5)C(C)C)ncnc3[nH]2)cn1`
Result: 92

Request: Endpoint output: Activity of `CC(C)[C@@H](Nc1ncnc2[nH]c(C(=O)N[C@@H]3CCN(C)C3)cc12)c1ccc2c(c1)S(=O)(=O)CCC2` . Value?
Result: 93

Request: State the recorded Activity for this entry: `CC(C)[C@@H](Nc1ncnc2[nH]ccc12)c1ccc2c(c1)S(=O)(=O)CCC2`
Result: 99

Request: For the compound `C[C@H](C(=O)O)[C@@H](NC(=O)c1ncnc2[nH]ccc12)c1ccc(Br)cc1` , what Activity is on record?
Result: 90

Request: Quick one: Activity for `COc1ccc([C@H](Cc2nnn[nH]2)NC(=O)c2ncnc3[nH]ccc23)cc1` ?
Result: 103

Request: If you can, please state the reported Activity value of `COc1ccc([C@@H](Cc2nnn[nH]2)NC(=O)c2ncnc3[nH]ccc23)cc1` .
Result: 92

Request: For the compound `Cc1nn(C)cc1-c1cc2c(N[C@H](c3ccc4c(c3)S(=O)(=O)CCC4)C(C)C)ncnc2[nH]1` , what Activity is on record?
Result: 105
